Each record here notes measured pIC50.
systemUnderTest: HEK-293-αVβ3 cells (Homo sapiens, UniProt P05106+P06756)
Sequence (P05106 whole entry): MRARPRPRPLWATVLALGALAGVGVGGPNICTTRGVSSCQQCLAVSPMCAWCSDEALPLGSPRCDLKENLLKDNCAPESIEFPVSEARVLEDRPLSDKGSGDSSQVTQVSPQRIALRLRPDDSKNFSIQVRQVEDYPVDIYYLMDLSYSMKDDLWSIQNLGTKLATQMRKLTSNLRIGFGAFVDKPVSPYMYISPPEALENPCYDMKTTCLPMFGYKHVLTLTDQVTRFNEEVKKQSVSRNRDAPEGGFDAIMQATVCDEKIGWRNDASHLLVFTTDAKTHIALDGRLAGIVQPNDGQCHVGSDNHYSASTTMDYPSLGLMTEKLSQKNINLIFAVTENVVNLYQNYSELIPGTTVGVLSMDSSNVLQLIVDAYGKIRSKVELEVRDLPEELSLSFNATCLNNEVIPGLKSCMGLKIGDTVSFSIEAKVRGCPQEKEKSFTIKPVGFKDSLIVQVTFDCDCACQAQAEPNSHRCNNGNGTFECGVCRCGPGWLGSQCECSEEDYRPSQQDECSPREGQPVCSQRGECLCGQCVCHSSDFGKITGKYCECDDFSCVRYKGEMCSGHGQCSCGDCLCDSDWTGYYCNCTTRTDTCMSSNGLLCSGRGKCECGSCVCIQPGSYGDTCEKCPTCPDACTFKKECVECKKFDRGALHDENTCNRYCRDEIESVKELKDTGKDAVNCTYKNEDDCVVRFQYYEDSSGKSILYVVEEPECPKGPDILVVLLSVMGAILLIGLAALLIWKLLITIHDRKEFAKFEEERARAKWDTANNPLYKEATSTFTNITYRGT
Sequence (P06756 whole entry): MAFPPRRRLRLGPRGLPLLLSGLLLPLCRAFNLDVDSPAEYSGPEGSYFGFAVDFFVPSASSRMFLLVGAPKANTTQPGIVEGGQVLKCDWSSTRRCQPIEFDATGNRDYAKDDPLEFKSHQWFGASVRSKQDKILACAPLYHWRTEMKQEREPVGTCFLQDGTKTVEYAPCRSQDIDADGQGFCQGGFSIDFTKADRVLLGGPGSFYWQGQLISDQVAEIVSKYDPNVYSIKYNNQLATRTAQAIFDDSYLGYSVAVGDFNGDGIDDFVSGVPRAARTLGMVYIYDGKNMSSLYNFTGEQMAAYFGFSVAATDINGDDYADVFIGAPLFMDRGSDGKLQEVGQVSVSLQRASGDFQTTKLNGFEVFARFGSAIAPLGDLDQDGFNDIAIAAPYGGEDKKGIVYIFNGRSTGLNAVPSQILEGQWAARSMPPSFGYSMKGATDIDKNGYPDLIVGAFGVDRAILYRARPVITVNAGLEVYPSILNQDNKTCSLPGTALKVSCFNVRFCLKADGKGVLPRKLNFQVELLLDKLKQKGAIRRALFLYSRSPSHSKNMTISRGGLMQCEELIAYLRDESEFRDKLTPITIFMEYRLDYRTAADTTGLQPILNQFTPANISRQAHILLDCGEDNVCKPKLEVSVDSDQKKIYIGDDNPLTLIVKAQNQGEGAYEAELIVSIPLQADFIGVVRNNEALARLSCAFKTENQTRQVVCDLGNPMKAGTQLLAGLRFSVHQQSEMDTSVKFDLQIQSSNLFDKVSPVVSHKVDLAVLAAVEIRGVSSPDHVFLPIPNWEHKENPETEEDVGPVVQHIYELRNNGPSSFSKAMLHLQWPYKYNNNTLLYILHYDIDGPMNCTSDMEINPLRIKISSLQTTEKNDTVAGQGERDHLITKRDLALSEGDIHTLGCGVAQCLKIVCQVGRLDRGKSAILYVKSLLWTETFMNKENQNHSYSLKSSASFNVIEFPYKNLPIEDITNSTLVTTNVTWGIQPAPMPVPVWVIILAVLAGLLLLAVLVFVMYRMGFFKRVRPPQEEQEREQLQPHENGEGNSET
assayRemarks: αVβ3 Cell Adhesion to Fibrinogen Assay
assaySetup: dose reducing by 50% the adhesion of HEK-293-αVβ3 cells to fibrinogen; separate determinations listed
When answering, recall that pIC50 equals minus log10 of the concentration in mol/L, and write that number alone.

O=C(CCCCc1ccc2c(n1)NCCC2)NCCC(C(=O)O)c1cnc2ccccc2c1 (single isomer, unassigned) [Example 89]	6.97
O=C(CCCCc1ccc2c(n1)NCCC2)NCCC(NC(=O)c1nc2ccccc2o1)C(=O)O (centres unmarked)	6.94

Lab book: pIC50 of O=C(CCCCc1ccc2c(n1)NCCC2)NCCC(C(=O)O)c1cnc2ccccc2c1 (single isomer, unassigned) [Example 90] noted as 6.64

Lab book: pIC50 of O=C(CCCCc1ccc2c(n1)NCCC2)NCCC(NC(=O)OCCc1ccccc1)C(=O)O (centres unmarked) noted as 6.23

Lab book: pIC50 of O=C(CCCCc1ccc2c(n1)NCCC2)NCCC(Nc1nc2ccccc2s1)C(=O)O (centres unmarked) noted as 6.28

Lab book: pIC50 of O=C(CCCCc1ccc2c(n1)NCCC2)NCCC(C(=O)O)c1cnc2ccccc2c1 (centres unmarked) [Example 84] noted as 6.92

Lab book: pIC50 of O=C(CCCCc1ccc2c(n1)NCCC2)NCCC(C(=O)O)n1cnc(-c2ccccc2)n1 (single isomer, unassigned) [Example 94] noted as 6.43

Lab book: pIC50 of O=C(CCCCc1ccc2c(n1)NCCC2)NCCC(NC(=O)OCc1ccc(F)cc1)C(=O)O (centres unmarked) noted as 6.49

###

Each record here notes measured activation at 10 µM.
systemUnderTest: HEK-293-αVβ3 cells (Homo sapiens, UniProt P05106+P06756)
assayRemarks: AP5 Binding Assay
Type: cell-based
assaySetup: @10 μM; relative to AP5 expression induced by cilengitide; read-out: AP5 expression induced at the highest concentration

Below, each entry is followed by its recorded activation at 10 µM result.
COc1ccc(C(CCNC(=O)CCCCc2ccc3c(n2)NCCC3)C(=O)O)cn1 (centres unmarked) [Example 79]	19%
COC(=O)C(CCNC(=O)CCCCc1ccc2c(n1)NCCC2)NC(=O)OCc1ccccc1 (centres unmarked) [Example 5]	23%

Lab book: activation at 10 µM of O=C(CCCCc1ccc2c(n1)NCCC2)NCCC(NC(=O)OCc1ccccc1F)C(=O)O (centres unmarked) [Example 65] noted as 13%

Lab book: activation at 10 µM of O=C(CCCCc1ccc2c(n1)NCCC2)NCC[C@@H](NC(=O)c1nc2ccccc2s1)C(=O)O [Example 86] noted as 7%

Lab book: activation at 10 µM of O=C(CCCCc1ccc2c(n1)NCCC2)NCCC(Nc1nc2ccccc2s1)C(=O)O (centres unmarked) [Example 70] noted as 6%

Lab book: activation at 10 µM of O=C(CCCCc1ccc2c(n1)NCCC2)NCCC(NC(=O)OCc1ccc(F)c(F)c1)C(=O)O (centres unmarked) [Example 68] noted as 9%

Lab book: activation at 10 µM of COc1ccc(COC(=O)NC(CCNC(=O)CCCCc2ccc3c(n2)NCCC3)C(=O)O)cc1 (centres unmarked) [Example 60] noted as 10%

Lab book: activation at 10 µM of O=C(CCCCc1ccc2c(n1)NCCC2)NCC[C@H](Nc1nc2ccccc2o1)C(=O)O [Example 87] noted as 14%

Every entry's value here was drawn from patent US11192889B2.
